System: HepG2
assay-details: GSK_TCMDC: Percent inhibition of human HepG2 cell line. Test compounds present at 10uM.
Format: functional
Let's look at some compounds and their measured Inhibition.
Give the quantity in %, number only.

# compound, Inhibition, %
records = [
    ("CCCCc1ccc(NC(=O)Nc2ccc3c(c2)CCNCC3)cc1.Cl", 16),
]

Query :: Endpoint output: Inhibition of "COc1cc2nc(N3CCC(C(N)=O)CC3)nc(NCc3ccccc3)c2cc1OC" . Value?
Result :: 23

Query :: Then this compound: CC1CN(S(=O)(=O)c2ccc(NC(=O)c3cc(-c4ccccc4O)n[nH]3)cc2)CC(C)O1 (stereo not drawn)
Result :: 21

Query :: Then this compound: CCC(=O)N(c1ccccc1)C1CCN(CCCC(NC(=O)c2cc(C(F)(F)F)cc(C(F)(F)F)c2)c2ccc(Cl)c(Cl)c2)CC1 (stereo not drawn)
Result :: 24

Query :: Then this compound: "CN1CCN(c2ccnc3ccc(NC(=O)Nc4ccccc4Br)cc23)CC1.Cl"
Result :: 4

Query :: Then this compound: Cc1ccc2[nH]cc(/C=C/C(=O)NC3CCC(CCN4CCc5ccc(C#N)cc5CC4)CC3)c2c1.Cl (stereo not drawn)
Result :: 11

Query :: Then this compound: Cl.NC1=NC(c2ccccc2)N(c2ccccc2)C(N)=N1 (stereo not drawn)
Result :: 0

Query :: Then this compound: "CCCNCc1c(O)ccc2c(CNCCC)c(O)ccc12.Cl"
Result :: 24
